- EXPERIMENT: Characterization of lipid nanoparticles encapsulating Fluc-mRNA prepared from different cap structures
- Assay type: physicochemical
- TEST_SETTINGS: LNP with Fluc-mRNA transcribed using the named cap analog

MOLECULE	PDI
CO[C@@H]1[C@H](OP(=O)(O)OC[C@H]2O[C@@H](n3cnc4c(=O)[nH]c(N)nc43)[C@H](O)[C@@H]2O)[C@@H](COP(=O)(O)OP(=O)(O)OP(=O)(O)OC[C@@]2(C(F)F)O[C@@H]([n+]3cn(C)c4c(=O)[nH]c(N)nc43)[C@H](O)[C@@H]2O)O[C@H]1n1cnc2c(N)ncnc21	0.057
CO[C@@H]1[C@H](OP(=O)(O)OC[C@H]2O[C@@H](n3cnc4c(=O)[nH]c(N)nc43)[C@H](O)[C@@H]2O)[C@@H](COP(=O)(O)OP(=O)(O)OP(=O)(O)OC[C@H]2O[C@@H]([n+]3cn(C)c4c(=O)[nH]c(N)nc43)[C@H](O)[C@]2(C)NC(C)=O)O[C@H]1n1cnc2c(N)ncnc21	0.048
CO[C@@H]1[C@H](OP(=O)(O)OC[C@H]2O[C@@H](n3cnc4c(=O)[nH]c(N)nc43)[C@H](O)[C@@H]2O)[C@@H](COP(=O)(O)OP(=O)(O)OP(=O)(O)OC[C@H]2O[C@@H]([n+]3cn(C)c4c(=O)[nH]c(N)nc43)[C@H](O)[C@]2(F)CN(C)C)O[C@H]1n1cnc2c(N)ncnc21	0.047
CO[C@@H]1[C@H](OP(=O)(O)OC[C@H]2O[C@@H](n3cnc4c(=O)[nH]c(N)nc43)[C@H](O)[C@@H]2O)[C@@H](COP(=O)(O)OP(=O)(O)OP(=O)(O)OC[C@H]2O[C@@H]([n+]3cn(C)c4c(=O)[nH]c(N)nc43)[C@H](O)[C@]2(C)C#N)O[C@H]1n1cnc2c(N)ncnc21	0.063
CNc1ncnc2c1ncn2[C@@H]1O[C@H](COP(=O)(O)OP(=O)(O)OP(=O)(O)OC[C@H]2O[C@@H]([n+]3cn(C)c4c(=O)[nH]c(N)nc43)[C@H](O)[C@@H]2O)[C@@H](OP(=O)(O)OC[C@H]2O[C@@H](n3cnc4c(=O)[nH]c(N)nc43)[C@H](O)[C@@H]2O)[C@H]1OC [m6A, reference compound]	0.047
